testedTarget: human Edg-1 receptor (Homo sapiens)
Construct: FLAG (N); expressed in transfected cells; membrane preparation
test: GTP-γ-S assay using human Edg-1 receptors (SPA, CHO Flp-In cell membrane preparation)
Assay type: biochemical
conditionLabel: test compound at 10 μM; high control 10 μM S1P regarded as 100% activation; background-corrected; triplicate; read-out: % Activation (Edg-1 receptor activation in percent of the activation by 10 μM S1P)
metric: activation at 10 µM (%)

Example results:
chemicalstructure=CCCOc1nc(Oc2cc(F)cc(F)c2)nc2oc(-c3cccc(C)c3)nc12 metric="activation at 10 µM" number=110
chemicalstructure=CCCOc1nc(Oc2cccnc2)nc2oc(-c3ccc(Cl)c(Cl)c3)nc12 metric="activation at 10 µM" number=94
chemicalstructure=CCCOc1nc(Oc2cc(F)cc(F)c2Cl)nc2oc(-c3cccc(C)c3)nc12 metric="activation at 10 µM" number=108
chemicalstructure=CCCOc1nc(Oc2c(Cl)cccc2Cl)nc2oc(-c3cccc(C)c3)nc12 metric="activation at 10 µM" number=98

(P) Cc1cc(Oc2nc(OCC3CC3)c3nc(-c4cc(F)ccc4Cl)oc3n2)n(C)n1
(Q) CCCOc1nc(Oc2cccc3c2OC(C)(C)C3)nc2oc(-c3cccc(C)c3)nc12
Task: Identify the entry with the smaller activation at 10 µM: P or Q . Your answer should be the label attached to the chosen record.
Result: Q

(a) CCCOc1nc(Sc2cc(F)ccc2C)nc2oc(-c3cc(F)ccc3Cl)nc12
(b) CCCOc1nc(Oc2ccc(OC)cc2F)nc2oc(-c3cccc(C)c3)nc12
Task: Hi team, can someone confirm which has the larger activation at 10 µM: a or b ? Thanks. Your answer should be the label attached to the chosen record.
Result: a

---

testedTarget: human Edg-1 receptor (Homo sapiens, UniProt P21453)
Construct: FLAG (N); expressed in transfected cells; membrane preparation
Sequence (P21453 whole entry): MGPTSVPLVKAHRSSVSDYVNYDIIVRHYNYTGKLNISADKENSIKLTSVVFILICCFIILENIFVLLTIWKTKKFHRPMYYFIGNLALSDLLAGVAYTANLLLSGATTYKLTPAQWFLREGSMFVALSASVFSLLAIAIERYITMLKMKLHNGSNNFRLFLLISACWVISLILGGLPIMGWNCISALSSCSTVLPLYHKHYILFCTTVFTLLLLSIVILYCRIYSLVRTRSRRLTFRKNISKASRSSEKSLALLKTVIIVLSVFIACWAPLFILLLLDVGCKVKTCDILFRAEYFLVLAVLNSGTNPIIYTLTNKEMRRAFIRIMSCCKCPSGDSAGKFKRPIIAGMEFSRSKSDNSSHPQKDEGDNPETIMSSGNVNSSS
test: GTP-γ-S assay using human Edg-1 receptors (SPA, CHO Flp-In cell membrane preparation)
Assay type: biochemical
conditionLabel: test compound at 10 μM; high control 10 μM S1P regarded as 100% activation; background-corrected; triplicate; read-out: % Activation (Edg-1 receptor activation in percent of the activation by 10 μM S1P)
metric: activation at 10 µM (%)

Example results:
compound=CCCOc1nc(Oc2ccccc2C(F)(F)F)nc2oc(-c3cccc(C)c3)nc12 number=103
compound=CCCOc1nc(Oc2ccccc2C#N)nc2oc(-c3cccc(C)c3)nc12 number=105
compound=Cc1cccc(-c2nc3c(OCC4CC4)nc(OC4COC4)nc3o2)c1 number=47

(I) CCCOc1nc(Oc2ccc(F)c(C(F)(F)F)c2)nc2oc(-c3cccc(C)c3)nc12
(II) CCCOc1nc(Sc2ccccc2)nc2oc(-c3ccc(Cl)c(Cl)c3)nc12
Task: Identify the entry with the smaller activation at 10 µM: I or II . Your answer should be the label attached to the chosen record.
Result: II
(II: 40%, I: 85%)

(P) CCCOc1nc(Sc2ccccc2)nc2oc(-c3cc(F)ccc3Cl)nc12
(Q) CCCOc1nc(Sc2ccc(C)cn2)nc2oc(-c3cc(F)ccc3Cl)nc12
Task: Hi team, can someone confirm which has the larger activation at 10 µM: P or Q ? Thanks. Your answer should be the label attached to the chosen record.
Result: P

---

testedTarget: human Edg-1 receptor (Homo sapiens, UniProt P21453)
Construct: FLAG (N); expressed in transfected cells; membrane preparation
test: GTP-γ-S assay using human Edg-1 receptors (SPA, CHO Flp-In cell membrane preparation)
Format: biochemical
conditionLabel: test compound at 10 μM; high control 10 μM S1P regarded as 100% activation; background-corrected; triplicate; read-out: % Activation (Edg-1 receptor activation in percent of the activation by 10 μM S1P)
metric: activation at 10 µM (%)

compound=CCCOc1nc(OC2CCOCC2)nc2oc(-c3cccc(C)c3)nc12 unittag=% number=102
compound=Clc1ccc(-c2nc3c(OCC4CC4)nc(Oc4cccnc4)nc3o2)cc1Cl unittag=% number=117
compound=CCCOc1nc(N[C@H]2CCC[C@H](C)C2)nc2oc(-c3cc(F)ccc3Cl)nc12 unittag=% number=63
compound=CCCOc1nc(Oc2ccc(C)c(Cl)c2)nc2oc(-c3cccc(C)c3)nc12 unittag=% number=96
compound=CCCOc1nc(Oc2cccc(OCC)c2)nc2oc(-c3cccc(C)c3)nc12 unittag=% number=60
compound=CCCOc1nc(Oc2ccccc2C(C)C)nc2oc(-c3cccc(C)c3)nc12 unittag=% number=112

(I) CC1(C)OCC(COc2nc(OCC3CC3)c3nc(-c4cc(F)ccc4Cl)oc3n2)O1 (centres unmarked)
(II) CCCOc1nc(Oc2cccc(SC(F)(F)F)c2)nc2oc(-c3cc(F)ccc3Cl)nc12
Task: Identify the entry with the smaller activation at 10 µM: I or II . Your answer should be the label attached to the chosen record.
Result: II
(II: 41%, I: 99%)

(a) CCOc1nc(Oc2ccccc2F)nc2oc(-c3cc(C)c(O)c(C)c3)nc12
(b) CCCOc1nc(OCC2(C)COC2)nc2oc(-c3cc(F)ccc3Cl)nc12
Task: Hi team, can someone confirm which has the larger activation at 10 µM: a or b ? Thanks. Your answer should be the label attached to the chosen record.
Result: a
(a: 119%, b: 46%)

---

testedTarget: human Edg-1 receptor (Homo sapiens, UniProt P21453)
Construct: FLAG (N); expressed in transfected cells; membrane preparation
test: GTP-γ-S assay using human Edg-1 receptors (SPA, CHO Flp-In cell membrane preparation)
Format: biochemical
conditionLabel: test compound at 10 μM; high control 10 μM S1P regarded as 100% activation; background-corrected; triplicate; read-out: % Activation (Edg-1 receptor activation in percent of the activation by 10 μM S1P)
metric: activation at 10 µM (%)

chemicalstructure=CCCOc1nc(Oc2cncc(F)c2)nc2oc(-c3cc(F)ccc3Cl)nc12 testedtarget="human Edg-1 receptor (Homo sapiens, UniProt P21453)" number=95
chemicalstructure=CCCOc1nc(Oc2ccc(F)c(C)c2)nc2oc(-c3cccc(C)c3)nc12 testedtarget="human Edg-1 receptor (Homo sapiens, UniProt P21453)" number=107
chemicalstructure=CCCOc1nc(Oc2ccccc2F)nc2oc(-c3ccc(Cl)c(Cl)c3)nc12 testedtarget="human Edg-1 receptor (Homo sapiens, UniProt P21453)" number=95
chemicalstructure=CCCOc1nc(Oc2ccc(C(F)(F)F)cc2Cl)nc2oc(-c3cccc(C)c3)nc12 testedtarget="human Edg-1 receptor (Homo sapiens, UniProt P21453)" number=82
chemicalstructure=CCCOc1nc(Oc2ccccc2)nc2oc(-c3cc(F)ccc3Cl)nc12 testedtarget="human Edg-1 receptor (Homo sapiens, UniProt P21453)" number=70

(I) CCCOc1nc(Oc2cc(Cl)ccc2C)nc2oc(-c3cccc(C)c3)nc12
(II) CCCOc1nc(Oc2ccc(C)nn2)nc2oc(-c3cccc(C)c3)nc12
Task: Identify the entry with the smaller activation at 10 µM: I or II . Your answer should be the label attached to the chosen record.
Result: II

---

testedTarget: human Edg-1 receptor (Homo sapiens, UniProt P21453)
Construct: FLAG (N); expressed in transfected cells; membrane preparation
test: GTP-γ-S assay using human Edg-1 receptors (SPA, CHO Flp-In cell membrane preparation)
Type: biochemical
conditionLabel: test compound at 10 μM; high control 10 μM S1P regarded as 100% activation; background-corrected; triplicate; read-out: % Activation (Edg-1 receptor activation in percent of the activation by 10 μM S1P)
metric: activation at 10 µM (%)

Example results:
compound=CCCOc1nc(Oc2cccnc2)nc2oc(-c3cccc(C)c3)nc12 testedtarget="human Edg-1 receptor (Homo sapiens, UniProt P21453)" number=111
compound=CCCOc1nc(Oc2ccccc2CCC)nc2oc(-c3cccc(C)c3)nc12 testedtarget="human Edg-1 receptor (Homo sapiens, UniProt P21453)" number=121
compound="CCOc1nc(OCC2COC(C)(C)O2)nc2oc(-c3cccc(C)c3)nc12 (stereo not drawn)" testedtarget="human Edg-1 receptor (Homo sapiens, UniProt P21453)" number=86
compound=CCCOc1nc(Sc2cc(C)oc2C)nc2oc(-c3cc(F)ccc3Cl)nc12 testedtarget="human Edg-1 receptor (Homo sapiens, UniProt P21453)" number=66
compound=CCCOc1nc(Oc2cccc(Cl)c2)nc2oc(-c3cccc(C)c3)nc12 testedtarget="human Edg-1 receptor (Homo sapiens, UniProt P21453)" number=113
compound=CCCOc1nc(Oc2cc(F)ccc2C)nc2oc(-c3cc(F)ccc3Cl)nc12 testedtarget="human Edg-1 receptor (Homo sapiens, UniProt P21453)" number=64
compound=CCCOc1nc(NC2CCCCC2)nc2oc(-c3cc(F)ccc3Cl)nc12 testedtarget="human Edg-1 receptor (Homo sapiens, UniProt P21453)" number=70

(a) CCCOc1nc(NC2CCC(C)CC2)nc2oc(-c3cc(F)ccc3Cl)nc12 (stereo not drawn)
(b) CCOc1nc(Oc2cc(C)nn2C)nc2oc(-c3cccc(C)c3)nc12
Task: Identify the entry with the smaller activation at 10 µM: a or b . Your answer should be the label attached to the chosen record.
Result: a
(a: 52%, b: 101%)
